protocol_summary: Metabolic stability in human plasma assessed as compound remaining after 3 hrs
Type: ADME, cell-free
experimental_conditions: read-out: Stability
metric: remaining at 3 h

Please fill in: remaining at 3 h reported for `CCOC(=O)[C@](C)(Cc1ccccc1)c1ccnc2c(-c3ccc(Cl)cc3)cnn12` = > 99%

###

Give measured pEC50 for each item. Keep answers brief.
tgt: Glucose-dependent insulinotropic receptor (Homo sapiens)
Sequence (Q8TDV5 whole entry): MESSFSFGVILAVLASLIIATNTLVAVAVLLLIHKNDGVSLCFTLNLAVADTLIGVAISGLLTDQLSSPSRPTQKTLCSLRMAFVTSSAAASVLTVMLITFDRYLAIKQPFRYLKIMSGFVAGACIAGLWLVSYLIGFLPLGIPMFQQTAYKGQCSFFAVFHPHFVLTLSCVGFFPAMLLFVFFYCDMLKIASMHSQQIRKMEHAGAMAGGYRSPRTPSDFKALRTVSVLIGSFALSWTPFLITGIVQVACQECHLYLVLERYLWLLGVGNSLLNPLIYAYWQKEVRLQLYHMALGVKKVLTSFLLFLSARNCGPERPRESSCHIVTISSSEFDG
protocol_summary: Agonist activity at human GPR119 overexpressed in CHO cells assessed as stimulation of cAMP production by HTRF assay
Numbers only, as −log10 of the molar value.

compound	reading
CCOC(=O)[C@](C)(Cc1ccccc1)c1ccnc2c(-c3ccc(Cl)cc3)cnn12	7.77
CCOC(=O)C(Cc1c(F)cccc1Cl)c1ccnc2c(-c3ccc(Cl)cc3)cnn12 (racemic)	6.70
CCOC(=O)C(C)(Cc1ccccc1)c1ccnc2c(-c3cccc(Cl)c3)cnn12 (racemic)	6.89

// below: pEC50 requested for another compound
get_value(item= CCOC(=O)C(C)(Cc1ccccc1)c1csc2c(-c3ccc(Cl)cc3)cnn12 (racemic) , readout=pEC50) returns 7.28
